Source of measurements: patent US12642797B2

- experimental_details: Solubility in sodium acetate medium pH 6.8 simulating the oral environment (USP method)
- Assay type: physicochemical
- test_settings: sodium acetate medium, pH 6.8, aqueous buffer, sodium acetate medium pH 6.8, USP method; read-out: Solubility
Counter-ions that a name gives are not always drawn.

| compound | solubility (µg/mL) |
| --- | --- |
| Cc1ccc(Sc2ccccc2N2CCNCC2)c(C)c1 [vortioxetine hydrobromide] | 150 |
